molecular target: von Hippel-Lindau disease tumor suppressor/Serine/threonine-protein kinase PAK 1 (Homo sapiens, UniProt Q13153+P40337); assay: PROTAC activity at VHL/PAK1 in human MDA-MB-231 cells assessed as induction of protein degradation at 0.1 uM incubated for 48 hrs by Western blot analysis relative to control; assay type: cell-based
Sequence (Q13153 2-545 limits assumed): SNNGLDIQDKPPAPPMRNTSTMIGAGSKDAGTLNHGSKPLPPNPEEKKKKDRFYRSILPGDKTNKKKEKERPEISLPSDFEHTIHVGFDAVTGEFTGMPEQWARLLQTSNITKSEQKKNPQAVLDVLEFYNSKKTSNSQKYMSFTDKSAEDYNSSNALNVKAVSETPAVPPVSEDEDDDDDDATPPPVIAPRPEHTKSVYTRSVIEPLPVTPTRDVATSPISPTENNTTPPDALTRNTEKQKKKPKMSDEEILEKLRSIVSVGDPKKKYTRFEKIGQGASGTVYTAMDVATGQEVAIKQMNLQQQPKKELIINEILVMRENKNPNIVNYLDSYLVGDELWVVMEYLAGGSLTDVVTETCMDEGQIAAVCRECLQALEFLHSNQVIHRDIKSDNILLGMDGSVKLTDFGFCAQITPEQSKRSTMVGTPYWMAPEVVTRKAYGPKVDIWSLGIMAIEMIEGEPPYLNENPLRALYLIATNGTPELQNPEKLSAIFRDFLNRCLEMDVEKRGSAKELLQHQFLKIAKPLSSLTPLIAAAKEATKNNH
Sequence (P40337 whole entry partner): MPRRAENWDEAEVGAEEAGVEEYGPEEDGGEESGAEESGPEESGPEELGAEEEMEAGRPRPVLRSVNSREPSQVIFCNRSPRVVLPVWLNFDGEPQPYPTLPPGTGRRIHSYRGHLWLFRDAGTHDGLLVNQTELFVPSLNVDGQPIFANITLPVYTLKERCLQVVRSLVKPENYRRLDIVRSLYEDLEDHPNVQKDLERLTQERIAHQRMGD
measurement_label: Activity (%)

[
  {
    "mol_smiles": "Cc1ncsc1-c1ccc([C@H](C)NC(=O)[C@@H]2C[C@@H](O)CN2C(=O)[C@@H](NC(=O)CCCc2cn(CCCCCCCn3c(=O)c(-c4ccc(Cl)cc4Cl)cc4cnc(NC5CC5)nc43)nn2)C(C)(C)C)cc1",
    "observed_measurement": 41
  }
]

(P) Cc1ncsc1-c1ccc([C@H](C)NC(=O)[C@@H]2C[C@@H](O)CN2C(=O)[C@@H](NC(=O)CCCc2cn(CCCCCn3c(=O)c(-c4ccc(Cl)cc4Cl)cc4cnc(NC5CC5)nc43)nn2)C(C)(C)C)cc1
(Q) Cc1ncsc1-c1ccc([C@H](C)NC(=O)[C@@H]2C[C@@H](O)CN2C(=O)[C@@H](NC(=O)CCCCc2cn(CCCCCn3c(=O)c(-c4ccc(Cl)cc4Cl)cc4cnc(NC5CC5)nc43)nn2)C(C)(C)C)cc1
**Query** Lab log: flag the item ( P or Q ) with the smaller Activity figure. API: response body contains the label of the selected item.
**Result** P
